Test system: Mus musculus
Experiment: Maximum increase in life span was measured in B6d2F1 mice after implanting murine leukemia L1210 cells(ic, 10e4 cells) at an intracerebral optimal dose of 160 mg/ (kg day)(qd 1-9)
Type: functional
READOUT NAME: ILS (%)

>  <SMILES DATA>
CN(C)/N=N/c1[nH]cnc1C(N)=O

>  <UNITS SYMBOL>
%

>  <EXPERIMENTAL RESULT>
18

$$$$
>  <SMILES DATA>
COC(=O)c1ccc(/N=N/N(C)C)cc1

>  <UNITS SYMBOL>
%

>  <EXPERIMENTAL RESULT>
7

$$$$
>  <SMILES DATA>
CN(C)/N=N/c1c(Cl)cccc1Cl

>  <UNITS SYMBOL>
%

>  <EXPERIMENTAL RESULT>
12

$$$$
>  <SMILES DATA>
CN(C)/N=N/c1ccc(C(N)=O)cc1

>  <UNITS SYMBOL>
%

>  <EXPERIMENTAL RESULT>
45

$$$$
>  <SMILES DATA>
COC(=O)c1cccc(/N=N/N(C)C)c1

>  <UNITS SYMBOL>
%

>  <EXPERIMENTAL RESULT>
10

$$$$
>  <SMILES DATA>
CN(C)/N=N/c1c(Br)cccc1Br

>  <UNITS SYMBOL>
%

>  <EXPERIMENTAL RESULT>
14

$$$$

###

System: Mus musculus
Assay: Maximum increase in life span was measured in B6d2F1 mice after implanting murine leukemia L1210 cells(ip, 10e5 cells) at an intraperitoneal optimal dose of 39 mg/ (kg day)(qd 1-9)
Assay type: functional
Documented ILS across a set of molecules

>  <SMILES DATA>
COC(=O)c1ccc(/N=N/N(C)C)cc1

>  <MEASURED TARGET>
Mus musculus

>  <ILS [%]>
40

$$$$
>  <SMILES DATA>
CN(C)/N=N/c1cccc(C(N)=O)c1

>  <MEASURED TARGET>
Mus musculus

>  <ILS [%]>
50

$$$$
>  <SMILES DATA>
COC(=O)c1cccc(/N=N/N(C)C)c1

>  <MEASURED TARGET>
Mus musculus

>  <ILS [%]>
30

$$$$
>  <SMILES DATA>
CN(C)/N=N/c1ccc(C(N)=O)cc1

>  <MEASURED TARGET>
Mus musculus

>  <ILS [%]>
40

$$$$
>  <SMILES DATA>
CN(C)/N=N/c1ccc(C(=O)O)cc1

>  <MEASURED TARGET>
Mus musculus

>  <ILS [%]>
41

$$$$

###

Documented logP across a set of compounds
Test: Partition coefficient (logP)
Format: physicochemical
Details: octanol/water; read-out: logP
READOUT NAME: logP

>  <SMILES DATA>
CC(=O)c1ccc(/N=N/N(C)C)cc1

>  <EXPERIMENTAL RESULT>
2.19

$$$$
>  <SMILES DATA>
CN(C)/N=N/c1cccc(Cl)c1

>  <EXPERIMENTAL RESULT>
3.3

$$$$
>  <SMILES DATA>
CN(C)/N=N/c1cccc(C(N)=O)c1

>  <EXPERIMENTAL RESULT>
1.21

$$$$
>  <SMILES DATA>
COC(=O)c1cccc(/N=N/N(C)C)c1

>  <EXPERIMENTAL RESULT>
2.77

$$$$
>  <SMILES DATA>
CN(C)/N=N/c1ccc(I)cc1

>  <EXPERIMENTAL RESULT>
3.71

$$$$
>  <SMILES DATA>
CN(C)/N=N/c1c(Br)cccc1Br

>  <EXPERIMENTAL RESULT>
4.31

$$$$
>  <SMILES DATA>
CN(C)/N=N/c1ccccc1C(=O)O

>  <EXPERIMENTAL RESULT>
-2.66

$$$$
>  <SMILES DATA>
CN(C)/N=N/c1ccc(Br)cc1

>  <EXPERIMENTAL RESULT>
3.45

$$$$
>  <SMILES DATA>
COC(=O)c1ccc(/N=N/N(C)C)cc1

>  <EXPERIMENTAL RESULT>
2.77

$$$$
>  <SMILES DATA>
CN(C)/N=N/c1ccc(Cl)cc1

>  <EXPERIMENTAL RESULT>
3.3

$$$$
>  <SMILES DATA>
CC(=O)c1ccccc1/N=N/N(C)C

>  <EXPERIMENTAL RESULT>
2.19

$$$$
>  <SMILES DATA>
COC(=O)c1ccccc1/N=N/N(C)C

>  <EXPERIMENTAL RESULT>
2.72

$$$$
>  <SMILES DATA>
CN(C)/N=N/c1c(Cl)cccc1Cl

>  <EXPERIMENTAL RESULT>
4.01

$$$$
>  <SMILES DATA>
CN(C)/N=N/c1ccc(F)cc1

>  <EXPERIMENTAL RESULT>
2.73

$$$$
>  <SMILES DATA>
CC(=O)c1cccc(/N=N/N(C)C)c1

>  <EXPERIMENTAL RESULT>
2.19

$$$$
